# method description: Inhibition of human recombinant beta-tryptase using chromogenic substrate S-2366
quantity kind: pKi
Schema: pKi number; meaning minus log10 of the concentration expressed in molar units.

Here is how some molecules turned out for pKi.
NCc1cccc(C2CCN(C(=O)c3ccccc3)CC2)c1 ... 5.72
NCc1cccc(C2CCN(C(=O)c3cccc(C#CC#Cc4cccc(C(=O)N5CCC(c6cccc(CN)c6)CC5)c4)c3)CC2)c1 ... 9.47
N=C(N)c1cccc(C2CCN(C(=O)c3cccc(C#CC#Cc4cccc(C(=O)N5CCC(c6cccc(C(=N)N)c6)CC5)c4)c3)CC2)c1 ... 9.54

For reference, reported pKi for NCc1cccc(C2CCN(C(=O)c3cccc(-c4ccc5c(c4)NC(c4c[nH]c6cc(-c7cccc(C(=O)N8CCC(c9cccc(CN)c9)CC8)c7)ccc46)C5)c3)CC2)c1 (stereo unspecified) stands at 8.52

For reference, reported pKi for NCc1cccc(C2CCN(C(=O)c3cccc(CCCCc4cccc(C(=O)N5CCC(c6cccc(CN)c6)CC5)c4)c3)CC2)c1 stands at 8.70

For reference, reported pKi for N=C(N)c1cccc(C2CCN(C(=O)c3cccc(CCCCc4cccc(C(=O)N5CCC(c6cccc(C(=N)N)c6)CC5)c4)c3)CC2)c1 stands at 9.52
